Tested on: Renal Hypertensive Rats
protocolNotes: Antihypertensive effects in renal hypertensive rats
Format: in vivo
statedConditions: Rattus norvegicus; Table 25; intravenous, 10 mg/kg or less
// reported minimal effective dose at 10 mg/kg per item

smi | targetOfAssay | minimal effective dose at 10 mg/kg
CCCCc1nc(Cl)c(CC(=O)OC)n1Cc1ccc(NC(=O)c2c(C(=O)O)cccc2[N+](=O)[O-])cc1 | Renal Hypertensive Rats | < 10 mg/kg
CCCCc1nc(Cl)c(CC(=O)O)n1Cc1ccc(-c2ccccc2C(=O)O)cc1 | Renal Hypertensive Rats | < 10 mg/kg
CCCCCCc1nc(Cl)c(CO)n1Cc1ccc(-c2ccccc2C(=O)O)cc1 | Renal Hypertensive Rats | < 10 mg/kg
CCCCc1nc(Cl)c(COC(C)=O)n1Cc1ccc(-c2ccccc2C(=O)O)cc1 | Renal Hypertensive Rats | < 10 mg/kg

---

Test system: Renal Hypertensive Rats
protocolNotes: Antihypertensive effects in renal hypertensive rats
Assay type: in vivo
statedConditions: Rattus norvegicus; Table 25; tested as sodium salt; intravenous, 10 mg/kg or less

smi | minimal effective dose at 10 mg/kg
CCCCc1nc(Cl)c(CC(=O)OC)n1Cc1ccc(NC(=O)c2ccccc2C(=O)O)cc1 | < 10 mg/kg
CCCCc1nc(Cl)c(CC(=O)OC)n1Cc1ccc(NS(=O)(=O)C(F)(F)F)cc1 | < 10 mg/kg
CCCCc1nc(Cl)c(CC(=O)OC)n1Cc1ccc(NC(=O)c2ccccc2NS(=O)(=O)C(F)(F)F)cc1 | < 10 mg/kg
CCCCc1nc(Cl)c(CC(=O)OC)n1Cc1ccc(NC(=O)c2cc(I)ccc2NS(=O)(=O)C(F)(F)F)cc1 | < 10 mg/kg
CCCCc1nc(Cl)c(CNC(=O)OC)n1Cc1ccc(-c2ccccc2C(=O)O)cc1 | < 10 mg/kg
CCCCc1nc(Cl)c(Cc2nnn[nH]2)n1Cc1ccc(-c2nnn[nH]2)cc1 | < 10 mg/kg
CCCCc1nc(Cl)c(COC)n1Cc1ccc(-c2ccccc2C(=O)O)cc1 | < 10 mg/kg
CCCCc1nc(C#N)c(C#N)n1Cc1ccc(NC(=O)c2ccccc2NS(=O)(=O)C(F)(F)F)cc1 | < 10 mg/kg
CCCCc1nc(Cl)c(CNC(=O)OC(C)C)n1Cc1ccc(-c2ccccc2C(=O)O)cc1 | < 10 mg/kg
CCCCc1nc(Cl)c(COC)n1Cc1ccc(C(=O)Nc2ccccc2C(=O)O)cc1 | < 10 mg/kg

---

targetOfAssay: AII receptor
protocolNotes: Angiotensin II receptor binding (displacement of 3H-AII)
statedConditions: read-out: Angiotensin II Receptor Binding IC50; Table 25; rat adrenal cortical microsomes, 2 nM 3H-AII, 1 hour, room temperature

compound | IC50
CCCCc1nc(Cl)c(C(=O)NC)n1Cc1ccc(-c2ccccc2C(=O)O)cc1 [Example 134] | 180 nM
CCCCc1nc(Cl)c(/C=C/C(C)O)n1Cc1ccc(-c2ccccc2C(=O)OC)cc1 (stereo not shown) [Example 229] | 2100 nM
CCCCc1ncc(CO)n1Cc1ccc(NC(=O)c2ccccc2NS(=O)(=O)C(F)(F)F)cc1 [Example 53C] | 210 nM
CCCCc1nc(Cl)c(CC(C)C(=O)OC(C)C)n1Cc1ccc(NC(=O)c2ccccc2NS(=O)(=O)C(F)(F)F)cc1 (stereo not shown) [Example 237] | 120 nM

---

targetOfAssay: AII receptor
protocolNotes: Angiotensin II receptor binding (displacement of 3H-AII)
statedConditions: read-out: Angiotensin II Receptor Binding IC50; Table 25; rat adrenal cortical microsomes, 2 nM 3H-AII, 1 hour, room temperature
// reported IC50 per item

smi | IC50 [nM]
CCCCSc1ncc(CO)n1Cc1ccc(-c2ccccc2C(=O)O)cc1 | 5600
CCCCc1nc(Cl)c(CC(=O)O)n1Cc1ccc(NC(=O)c2ccccc2NS(=O)(=O)C(F)(F)F)cc1 | 640
CCCCc1nc(Cl)c(CC(=O)O)n1Cc1ccc(-c2ccccc2C(=O)O)cc1 | 430
CCCCc1nc(Cl)c(COC)n1Cc1ccc(-c2ccccc2C(=O)NNS(=O)(=O)C(F)(F)F)cc1 | 200

---

Test system: Renal Hypertensive Rats
protocolNotes: Antihypertensive effects in renal hypertensive rats
Assay type: in vivo
statedConditions: Rattus norvegicus; Table 25; oral, 100 mg/kg or less

molecule | targetOfAssay | minimal effective dose at 100 mg/kg
CCCCc1nc(Cl)c(COC)n1Cc1ccc(-c2cccc(C(=O)O)c2)cc1 | Renal Hypertensive Rats | > 100 mg/kg
CCCCc1nc(Cl)c(CO)n1Cc1ccc(-c2ccccc2C(=O)O)cc1 | Renal Hypertensive Rats | < 100 mg/kg
CCCCc1nc(Cl)c(/C=C/C(C)O)n1Cc1ccc(-c2ccccc2C(=O)OC)cc1 (centres unmarked) | Renal Hypertensive Rats | < 100 mg/kg
CCCCc1nc(CO)c(Cl)n1Cc1ccc(-c2ccccc2C(=O)O)cc1 | Renal Hypertensive Rats | > 100 mg/kg
CCCCc1nc(CO)c(Cl)n1Cc1ccc(-c2ccccc2-c2nn[nH]n2)cc1 | Renal Hypertensive Rats | < 100 mg/kg
CCCCCc1nc(Cl)c(CO)n1Cc1ccc(-c2ccccc2C(=O)O)cc1 | Renal Hypertensive Rats | < 100 mg/kg
CCCCc1nc(Cl)c(CO)n1Cc1ccc(Sc2ccccc2C(=O)O)cc1 | Renal Hypertensive Rats | > 100 mg/kg
CCCCc1ncc(CO)n1Cc1ccc(-c2ccccc2C(=O)O)cc1 | Renal Hypertensive Rats | > 100 mg/kg
CCc1nccn1Cc1ccc(NC(=O)c2ccccc2NS(=O)(=O)C(F)(F)F)cc1 | Renal Hypertensive Rats | > 100 mg/kg
CCCCCCc1nccn1Cc1ccc(NC(=O)c2ccccc2C(=O)O)cc1 | Renal Hypertensive Rats | > 100 mg/kg
CSc1ncc(CO)n1Cc1ccc(NC(=O)c2ccccc2C(=O)O)cc1 | Renal Hypertensive Rats | > 100 mg/kg
CCCCc1nc(Cl)c(CO)n1Cc1ccc(-c2ccccc2C(=O)NOC)cc1 | Renal Hypertensive Rats | > 100 mg/kg
CCCCc1nc(Cl)c(CC(C)C(=O)N[C@H](C)c2ccccc2)n1Cc1ccc(NC(=O)c2ccccc2C(=O)O)cc1 (single isomer, unassigned) | Renal Hypertensive Rats | > 100 mg/kg
CCCCc1ncc(C=O)n1Cc1ccc(-c2ccccc2C(=O)O)cc1 | Renal Hypertensive Rats | < 100 mg/kg
CCCCc1nc(Cl)c(/C=C/CO)n1Cc1ccc(NC(=O)c2ccccc2NS(=O)(=O)C(F)(F)F)cc1 | Renal Hypertensive Rats | < 100 mg/kg
CCCCCc1nccn1Cc1ccc(NC(=O)c2ccccc2C(=O)O)cc1 | Renal Hypertensive Rats | > 100 mg/kg
CCCCc1nc(Cl)c(COC)n1Cc1ccc(-c2ccccc2C(=O)NNS(=O)(=O)C(F)(F)F)cc1 | Renal Hypertensive Rats | > 100 mg/kg

---

// reported pIC50 per item
targetOfAssay: AII receptor
protocolNotes: Angiotensin II receptor binding (displacement of 3H-AII)
statedConditions: read-out: Angiotensin II Receptor Binding IC50; Table 25; tested as sodium salt; rat adrenal cortical microsomes, 2 nM 3H-AII, 1 hour, room temperature
pIC50: −log10 of the molar value.
quantity: pIC50

compound | endpointResult
CCCCc1nc(Cl)c(COC)n1Cc1ccc(C(=O)Nc2cccc(C)c2C(=O)O)cc1 [Example 80] | 6.30
CCCCc1nc(Cl)c(CNC(=O)Nc2cccc3ccccc23)n1Cc1ccc(-c2ccccc2C(=O)O)cc1 [Example 165] | 5.52
CCc1nccn1Cc1ccc(NC(=O)c2ccccc2C(=O)O)cc1 [Example 62] | 5.04
CCCCc1nc(Cl)c(CNC(=O)NC(C)c2cccc3ccccc23)n1Cc1ccc(-c2ccccc2C(=O)O)cc1 (stereo not shown) [Example 171] | 6.22
CCCCc1nc(Cl)c(Cc2nnn[nH]2)n1Cc1cccc(-c2nnn[nH]2)c1 [Example 26] | 5.42
CCCCc1nc(Cl)c(COC(C)=O)n1Cc1ccc(NC(=O)c2ccccc2C(=O)O)cc1 [Example 10] | 6.72
CCCCc1nc(CC(=O)OC)c(Cl)n1Cc1ccc(NC(=O)c2ccccc2C(=O)O)cc1 [Example 3] | 6.38
CCCCc1nc(Cl)c(COC(C)=O)n1Cc1ccc(C(=O)O)cc1 [Example 20] | 5.28
CCCCc1nc(Cl)c(CC(=O)OC)n1Cc1ccc(NC(=O)c2ccccc2NS(=O)(=O)C(F)(F)F)cc1 [Example 30] | 6.41
CCCCc1nc(Cl)c(COC)n1Cc1ccc(N(C)C(=O)c2c(Cl)ccc(Cl)c2C(=O)O)cc1 [Example 77] | 5.24
CCCCc1nc(Cl)c(COC)n1Cc1ccc(C(=O)Nc2nnn[nH]2)cc1 [Example 79] | 6.30
CCCCc1nc(Cl)c(Cn2cncn2)n1Cc1ccc(C(=O)c2ccccc2C(=O)O)cc1 [Example 204] | 5.72
CCCCc1nc(Cl)c(CO)n1Cc1ccc(-c2ccccc2CC(=O)O)cc1 [Example 175] | 5.82
CCCCc1nc(Cl)c(CC(=O)OC)n1Cc1ccc(N(Cc2ccccc2)C(=O)c2ccccc2NS(=O)(=O)C(F)(F)F)cc1 [Example 76] | 5.57
CCCCc1nc(Cl)c(COC)n1Cc1ccc(C(=O)Nc2ccccc2C(=O)O)cc1 [Example 78] | 5.10
CCCCc1nc(Cl)c(COC)n1Cc1ccc(C(=O)Nc2ccccc2-c2nnn[nH]2)cc1 [Example 81] | 6.24
